Origin of the recorded values: PubChem BioAssay (NCI)

Test system: UACC-62 melanoma
Experiment: NCI tumour cell line growth inhibition, 48 h
Readout label: TGI (µM)
Number only, in µM; omit the unit.

compound_string=N=c1c2c(=O)n3c(nc2nc2sc4ccc(Cl)cc4n12)-c1ccccc1Sc1ccccc1-3 result_value=3.27

Pending compound:
Lookup: Field request: TGI | item: Clc1ccc(-c2cc(-c3nc4ccccc4[nH]3)no2)cc1
Found: 28.3

----------
Test system: COLO 205 colon
Test: NCI tumour cell line growth inhibition, 48 h
Reported TGI values for a set of molecules
Express the result in µM but write the number alone.

Study these solved cases before continuing.
molecule=N=c1c2c(=O)n3c(nc2nc2sc4ccc(Cl)cc4n12)-c1ccccc1Sc1ccccc1-3 experimental_system="COLO 205 colon" result_value=5.24
molecule=COc1ccc2cc(C(=O)/C=C/c3ccccc3OC)ccc2c1 experimental_system="COLO 205 colon" result_value=49.4

Then this molecule:
Lookup: Return TGI measured with COLO 205 colon given this molecule: Cc1cc(Cl)ccc1Nc1nc(C(F)(F)F)ccc1C(=O)N/N=C/c1ccc(F)cc1
Found: 3.64
